# ASSAY_METHOD_TEXT: Cytotoxicity against mouse B16F10 cells assessed as cell viability at 10 uM by MTT assay
# Type: cell-based, B16-F10
# PARTICULARS: read-out: Activity
# viability at 10 µM per entry
Express your answer in %, writing the number without its unit.

Prompt: Entry `O=c1c(O[C@@H]2O[C@H](CO)[C@@H](O)[C@H](O)[C@H]2O)c(-c2ccc(O[C@@H]3O[C@H](CO)[C@@H](O[C@@H]4O[C@H](CO)[C@@H](O)[C@H](O)[C@H]4O)[C@H](O)[C@H]3O)c(O)c2)oc2cc(O)cc(O)c12` : reported viability at 10 µM = ?
Completion: 97.8

Prompt: Thanks! And `O=c1c(O[C@@H]2O[C@H](CO)[C@@H](O[C@@H]3O[C@H](CO)[C@@H](O)[C@H](O)[C@H]3O)[C@H](O)[C@H]2O)c(-c2ccc(O[C@@H]3O[C@H](CO)[C@@H](O[C@@H]4O[C@H](CO)[C@@H](O)[C@H](O)[C@H]4O)[C@H](O)[C@H]3O)c(O)c2)oc2cc(O)cc(O)c12` ?
Completion: 107

Prompt: Thanks! And `O=c1c(O[C@@H]2O[C@H](CO)[C@@H](O)[C@H](O)[C@H]2O)c(-c2ccc(O)c(O)c2)oc2cc(O[C@@H]3O[C@H](CO)[C@@H](O)[C@H](O)[C@H]3O)cc(O)c12` ?
Completion: 97.7

---

# TESTED_SYSTEM: Tyrosinase (Agaricus bisporus)
# ASSAY_METHOD_TEXT: Induction of mushroom tyrosinase activity using L-DOPA as substrate at 50 uM after 30 mins
READOUT_NAME: Activity (%)
Express your answer in %, writing the number without its unit.

SMI	TESTED_SYSTEM	UNITS_OF_MEASURE	Activity
O=c1c(O[C@@H]2O[C@H](CO)[C@@H](O[C@@H]3O[C@H](CO)[C@@H](O)[C@H](O)[C@H]3O)[C@H](O)[C@H]2O)c(-c2ccc(O)c(O)c2)oc2cc(O[C@@H]3O[C@H](CO)[C@@H](O)[C@H](O)[C@H]3O)cc(O)c12	Tyrosinase (Agaricus bisporus)	%	102

Prompt: Entry `O=c1c(O[C@@H]2O[C@H](CO)[C@@H](O[C@@H]3O[C@H](CO)[C@@H](O)[C@H](O)[C@H]3O)[C@H](O)[C@H]2O)c(-c2ccc(O[C@@H]3O[C@H](CO)[C@@H](O)[C@H](O)[C@H]3O)c(O)c2)oc2cc(O)cc(O)c12` : reported Activity = ?
Completion: 101

---

# ASSAY_METHOD_TEXT: Cytotoxicity against mouse B16F10 cells assessed as cell viability at 250 uM by MTT assay
# Type: cell-based, B16-F10
# PARTICULARS: read-out: Activity
READOUT_NAME: viability at 250 µM (%)
Express your answer in %, writing the number without its unit.

Prompt: Entry `Cn1c(=O)c2nc[nH]c2n(C)c1=O.O` : reported viability at 250 µM = ?
Completion: 94.4

---

# TESTED_SYSTEM: Tyrosinase (Agaricus bisporus)
# ASSAY_METHOD_TEXT: Induction of mushroom tyrosinase activity using L-tyrosine as substrate at 50 uM after 30 mins
READOUT_NAME: Activity (%)
Express your answer in %, writing the number without its unit.

SMI	UNITS_OF_MEASURE	Activity
O=c1c(O[C@@H]2O[C@H](CO)[C@@H](O)[C@H](O)[C@H]2O)c(-c2ccc(O[C@@H]3O[C@H](CO)[C@@H](O[C@@H]4O[C@H](CO)[C@@H](O)[C@H](O)[C@H]4O)[C@H](O)[C@H]3O)c(O)c2)oc2cc(O)cc(O)c12	%	88.9

Okay, next one:
Prompt: Quick check: Activity on Tyrosinase (Agaricus bisporus), item `O=c1c(O[C@@H]2O[C@H](CO)[C@@H](O)[C@H](O)[C@H]2O)c(-c2ccc(O)c(O)c2)oc2cc(O[C@@H]3O[C@H](CO)[C@@H](O[C@@H]4O[C@H](CO)[C@@H](O)[C@H](O)[C@H]4O)[C@H](O)[C@H]3O)cc(O)c12` ?
Completion: 95.2

---

# viability at 100 µM per entry
# ASSAY_METHOD_TEXT: Cytotoxicity against mouse B16F10 cells assessed as cell viability at 100 uM by MTT assay
# Type: cell-based, B16-F10
# PARTICULARS: read-out: Activity
Numeric answer plus unit only.

SMI	RESULT
O=c1c(O[C@@H]2O[C@H](CO)[C@@H](O[C@@H]3O[C@H](CO)[C@@H](O)[C@H](O)[C@H]3O)[C@H](O)[C@H]2O)c(-c2ccc(O)c(O)c2)oc2cc(O[C@@H]3O[C@H](CO)[C@@H](O[C@@H]4O[C@H](CO)[C@@H](O)[C@H](O)[C@H]4O)[C@H](O)[C@H]3O)cc(O)c12	93.9%

Prompt: Entry `O=c1c(O[C@@H]2O[C@H](CO)[C@@H](O[C@@H]3O[C@H](CO)[C@@H](O)[C@H](O)[C@H]3O)[C@H](O)[C@H]2O)c(-c2ccc(O[C@@H]3O[C@H](CO)[C@@H](O)[C@H](O)[C@H]3O)c(O)c2)oc2cc(O)cc(O)c12` : reported viability at 100 µM = ?
Completion: 86.8%

---

# viability at 10 µM per entry
# ASSAY_METHOD_TEXT: Cytotoxicity against mouse B16F10 cells assessed as cell viability at 10 uM by MTT assay
# Format: cell-based, B16-F10
# PARTICULARS: read-out: Activity
Express your answer in %, writing the number without its unit.

SMI	READOUT_NAME	UNITS_OF_MEASURE	RESULT_NUMBER
O=c1c(O[C@@H]2O[C@H](CO)[C@@H](O[C@@H]3O[C@H](CO)[C@@H](O)[C@H](O)[C@H]3O)[C@H](O)[C@H]2O)c(-c2ccc(O)c(O)c2)oc2cc(O)cc(O)c12	viability at 10 µM	%	99.6
O=c1c(O[C@@H]2O[C@H](CO)[C@@H](O)[C@H](O)[C@H]2O)c(-c2ccc(O)c(O)c2)oc2cc(O[C@@H]3O[C@H](CO)[C@@H](O[C@@H]4O[C@H](CO)[C@@H](O)[C@H](O)[C@H]4O)[C@H](O)[C@H]3O)cc(O)c12	viability at 10 µM	%	95.1
O=c1c(O[C@@H]2O[C@H](CO)[C@@H](O)[C@H](O)[C@H]2O)c(-c2ccc(O)c(O)c2)oc2cc(O)cc(O)c12	viability at 10 µM	%	105
O=c1c(O[C@@H]2O[C@H](CO)[C@@H](O[C@@H]3O[C@H](CO)[C@@H](O)[C@H](O)[C@H]3O)[C@H](O)[C@H]2O)c(-c2ccc(O[C@@H]3O[C@H](CO)[C@@H](O)[C@H](O)[C@H]3O)c(O)c2)oc2cc(O)cc(O)c12	viability at 10 µM	%	90

Okay, next one:
Prompt: Entry `O=c1c(O[C@@H]2O[C@H](CO)[C@@H](O)[C@H](O)[C@H]2O)c(-c2ccc(O[C@@H]3O[C@H](CO)[C@@H](O)[C@H](O)[C@H]3O)c(O)c2)oc2cc(O)cc(O)c12` : reported viability at 10 µM = ?
Completion: 107

---

# Test system: B16-F10
# ASSAY_METHOD_TEXT: Induction of melanogenesis in mouse B16F10 cells assessed as intracellular melanin level at 200 uM after 72 hrs
# Format: functional
READOUT_NAME: Activity (%)
Express your answer in %, writing the number without its unit.

SMI	READOUT_NAME	RESULT_NUMBER
O=c1c(O[C@@H]2O[C@H](CO)[C@@H](O)[C@H](O)[C@H]2O)c(-c2ccc(O[C@@H]3O[C@H](CO)[C@@H](O)[C@H](O)[C@H]3O)c(O)c2)oc2cc(O)cc(O)c12	Activity	92.6
O=c1c(O[C@@H]2O[C@H](CO)[C@@H](O[C@@H]3O[C@H](CO)[C@@H](O)[C@H](O)[C@H]3O)[C@H](O)[C@H]2O)c(-c2ccc(O[C@@H]3O[C@H](CO)[C@@H](O)[C@H](O)[C@H]3O)c(O)c2)oc2cc(O)cc(O)c12	Activity	190.5

Okay, next one:
Prompt: Entry `O=c1c(O[C@@H]2O[C@H](CO)[C@@H](O)[C@H](O)[C@H]2O)c(-c2ccc(O)c(O)c2)oc2cc(O[C@@H]3O[C@H](CO)[C@@H](O[C@@H]4O[C@H](CO)[C@@H](O)[C@H](O)[C@H]4O)[C@H](O)[C@H]3O)cc(O)c12` : reported Activity = ?
Completion: 83.8

---

# ASSAY_METHOD_TEXT: Cytotoxicity against mouse B16F10 cells assessed as cell viability at 10 uM by MTT assay
# Format: cell-based, B16-F10
# PARTICULARS: read-out: Activity
READOUT_NAME: viability at 10 µM (%)
Express your answer in %, writing the number without its unit.

SMI	viability at 10 µM (%)
O=c1c(O[C@@H]2O[C@H](CO)[C@@H](O[C@@H]3O[C@H](CO)[C@@H](O)[C@H](O)[C@H]3O)[C@H](O)[C@H]2O)c(-c2ccc(O)c(O)c2)oc2cc(O[C@@H]3O[C@H](CO)[C@@H](O[C@@H]4O[C@H](CO)[C@@H](O)[C@H](O)[C@H]4O)[C@H](O)[C@H]3O)cc(O)c12	105

Okay, next one:
Prompt: Entry `O=c1c(O[C@@H]2O[C@H](CO)[C@@H](O[C@@H]3O[C@H](CO)[C@@H](O)[C@H](O)[C@H]3O)[C@H](O)[C@H]2O)c(-c2ccc(O)c(O)c2)oc2cc(O[C@@H]3O[C@H](CO)[C@@H](O)[C@H](O)[C@H]3O)cc(O)c12` : reported viability at 10 µM = ?
Completion: 95.1
